Target: T1, recombinant tetanus toxin fragment C (rTTC) (Clostridium tetani, UniProt P04958 865-1315)
T1 sequence: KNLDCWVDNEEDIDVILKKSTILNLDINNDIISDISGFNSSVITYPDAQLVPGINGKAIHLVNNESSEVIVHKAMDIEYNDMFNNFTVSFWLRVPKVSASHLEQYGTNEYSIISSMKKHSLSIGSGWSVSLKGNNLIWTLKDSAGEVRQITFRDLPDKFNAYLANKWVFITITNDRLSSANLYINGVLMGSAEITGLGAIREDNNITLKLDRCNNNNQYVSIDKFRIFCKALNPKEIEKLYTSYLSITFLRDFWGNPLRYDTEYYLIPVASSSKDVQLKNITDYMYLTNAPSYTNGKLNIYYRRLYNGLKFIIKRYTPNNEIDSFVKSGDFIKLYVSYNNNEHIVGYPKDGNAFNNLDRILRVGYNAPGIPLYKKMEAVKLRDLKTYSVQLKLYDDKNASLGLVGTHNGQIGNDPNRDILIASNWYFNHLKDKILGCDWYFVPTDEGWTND
Test: ELISA, directly coated rTTC, E. coli supernatant
endpointName: absorbance at 450 nm (A450)
Express your answer in A450, writing the number without its unit.

binder | valueUnits | absorbance at 450 nm
SVT34 (VHH) VHH: QVQLQESGGGLVQPGGSLRLSCAASGRTISSYAMGWFRQAPGKQREFVAAISRSGGNTYYTDSVKGRFIISRDNAKNTLYLQMNNLKPEETAVYYCAADPNLMYESKWKYRALEAWGQGTLVTVSS | A450 | 0.16
SVT15 (VHH) VHH: QVQLQESGGGLVQTGGSLRLSCRASGRAFANYHFGWFRQAPGKDREFVASISWKGGSTYYANFALGRFTSSVDRAESSVYLQMSGLTPEDTATYYCAAHDGGDWNYHTGMDYWGKGILVTVSS | A450 | 0.099
SVT02 (VHH) VHH: QVQLQQSGGGSVQAGGSLRLSCVGPQRTFSTYGMGWFRQAPGKEREFVAGINYKGDTTYYADSVKGRFTISRDNAKNTLYLQMDSLKPEDRAVYQCARKGGLGGDYRDAGQYRYWGQGTQVTVSS | A450 | 0.06
SVT22 (VHH) VHH: QVQLQESGGGLVQAGESLRLSCTASGISFDDYAIGWFRQAPGQQRKGVACISKADGRTDYLGSVKGRFTLSTDNTKNTVHLQMNNLKPEDTALYTCAAEYKSCGMGYKPIDYWGQGMQVTVSS | A450 | 0.138
SVT08 (VHH) VHH: QVQLQESGGGSVQAGGSLRLSCTASEFSYNDYTIAWFRRAAGKGRVEDGEGVASITTSYDRAYDNRIHYGDSVKGRFTISRDNAKNTVYLQMTNLNPSDTAVYYCGLDITPPGGIGASLTEGFLFDYWGQGTQVTVSS | A450 | 0.13
SVT29 (VHH) VHH: QVQLQESGGGLVQTGGSLTLSCRAYGRAFDNYHFGWFRQAPGKDREFVASISWKGGSTYRANFALGRFTSSVNRGESSVYLHMSGLTPEDTATYYCAAHDGGDWNYHTGMDYWGKGILVTVSS | A450 | 0.111

Continue with the next binder.
INPUT: Any idea what absorbance at 450 nm was measured for SVT25 (VHH) VHH: QVQLQESGGGLVQAGGSLRLSCAASGRTISVYAMGWFRQAPGKQREFVAAISRSDNTYYTDSVKGRFTISRDNVKNTLYLQMNSLKPEETAVYYCAADPNLMYETKWKYRALEAWGQGTLVTVSS ?
OUTPUT: 0.211

Attribution: patent US20240376185A1
